- Tested on: H. influenzae ATCC 49247
- Test description: MIC determination
- Type: cell-based
- Condition: Haemophilus influenzae, ATCC49247; H. influenzae ATCC 49247; read-out: MIC

Compound	Target entity	Sign qualifier	MIC / µg/mL
CSC1O[C@H]([C@H](NC(=O)[C@H]2NC[C@@H]3C=C(c4cccc(F)c4)CCO[C@@H]23)[C@H](C)Cl)C(O)[C@@H](O)[C@H]1O (stereo partly drawn)	H. influenzae ATCC 49247	>	64
CSC1O[C@H]([C@H](NC(=O)[C@H]2NC[C@@H]3C=C(c4ccc(F)cc4F)CCO[C@@H]23)[C@H](C)Cl)C(O)[C@@H](O)[C@H]1O (stereo partly drawn)	H. influenzae ATCC 49247	>	64
CSC1O[C@H]([C@H](NC(=O)[C@H]2NC[C@@H]3C=C(c4ccccc4)CCO[C@@H]23)[C@H](C)Cl)C(O)[C@@H](O)[C@H]1O (stereo partly drawn)	H. influenzae ATCC 49247	=	8
CSC1O[C@H]([C@H](NC(=O)[C@H]2NC[C@@H]3C=C(c4ccc(C#N)cc4)CCO[C@@H]23)[C@H](C)Cl)C(O)[C@@H](O)[C@H]1O (stereo partly drawn)	H. influenzae ATCC 49247	=	128
CSC1O[C@H]([C@H](NC(=O)[C@H]2NC[C@@H]3CCCCO[C@H]32)[C@H](C)Cl)C(O)[C@@H](O)[C@H]1O (stereo partly drawn)	H. influenzae ATCC 49247	=	8
COc1ccc(C2CCO[C@@H]3[C@H](CN[C@@H]3C(=O)N[C@H]([C@H](C)Cl)[C@H]3OC(SC)[C@H](O)C(O)C3O)C2)cc1 (stereo partly drawn)	H. influenzae ATCC 49247	=	16

---

- System: S. pneumoniae ATCC 49619
- Test description: MIC determination
- Type: cell-based
- Condition: Streptococcus pneumoniae, ATCC49619; S. pneumoniae ATCC 49619; read-out: MIC
Listed here: items and their measured MIC.
Recorded endpoint: MIC

Compound	Recorded endpoint	Reported result
CSC1O[C@H]([C@H](NC(=O)[C@H]2NC[C@@H]3C[C@@H](c4cccc(F)c4)CCO[C@H]32)[C@H](C)Cl)C(O)[C@@H](O)[C@H]1O (stereo partly drawn)	MIC	≤ 0.06 µg/mL
COc1ccc([C@H]2CCO[C@@H]3[C@H](CN[C@@H]3C(=O)N[C@H]([C@H](C)Cl)[C@H]3OC(SC)[C@H](O)[C@H](O)C3O)C2)cc1 (stereo partly drawn) [FSA-512080b]	MIC	≤ 0.06 µg/mL
CSC1O[C@H]([C@H](NC(=O)[C@H]2NC[C@@H]3C[C@@H](c4ccc(C(F)(F)F)cc4)CCO[C@H]32)[C@H](C)Cl)C(O)[C@@H](O)[C@H]1O (stereo partly drawn)	MIC	≤ 0.06 µg/mL

---

Listed here: items and their measured MIC.
- Tested on: P. aeruginosa ATCC 27853
- Test description: MIC determination
- Format: cell-based
- Condition: Pseudomonas aeruginosa, ATCC27853; P. aeruginosa ATCC 27853; read-out: MIC

Molecule	Target entity	MIC
CSC1O[C@H]([C@H](NC(=O)[C@H]2NC[C@@H]3C[C@H]4C[C@H]4CO[C@H]32)[C@H](C)Cl)C(O)C(O)[C@H]1O (stereo in doubt) [FSA-507007]	P. aeruginosa ATCC 27853	> 64 µg/mL
CSC1O[C@H]([C@H](NC(=O)[C@@H]2[C@@H]3OCC=CC[C@H]3CN2C)[C@H](C)Sc2ccc(-c3cccnc3)cc2)C(O)[C@@H](O)[C@H]1O (stereo partly drawn) [FSA-213064]	P. aeruginosa ATCC 27853	> 64 µg/mL
CSC1O[C@H]([C@H](NC(=O)[C@H]2NC[C@@H]3C=CCO[C@@H]23)[C@H](C)Cl)C(O)[C@@H](O)[C@H]1O (stereo partly drawn) [FSA-24039]	P. aeruginosa ATCC 27853	> 32 µg/mL
